# Tested on: FB
# Test Name: Euclidean distance of Cell Painting phenotypic profile (signed KS, 77 features) to DMSO centroid (dimensionless distance); 5 or 10 uM (library dependent); higher = stronger phenotypic change vs DMSO (phenoactivity)
# Conditions: 48 h
Reported Property: Euclidean distance

Reference set (3 entries):
[
  {
    "Molecule": "COC(=O)N(C)c1c(N)nc(-c2nn(Cc3ccccc3F)c3ncccc23)nc1N",
    "Tested Target": "FB",
    "Euclidean distance": 1.34
  },
  {
    "Molecule": "NS(=O)(=O)c1cc2c(cc1Cl)NCNS2(=O)=O [Hydrochlorothiazide]",
    "Tested Target": "FB",
    "Euclidean distance": 1.02
  },
  {
    "Molecule": "CCC(c1ccccc1)c1c(O)c2ccccc2oc1=O (stereo not given)",
    "Tested Target": "FB",
    "Euclidean distance": 1.04
  }
]

Suppose we examine the molecule NCC[C@H](O)C(=O)N[C@@H]1C[C@H](N)[C@@H](O[C@H]2O[C@H](CN)[C@@H](O)[C@H](O)[C@H]2O)[C@H](O)[C@H]1O[C@H]1O[C@H](CO)[C@@H](O)[C@H](N)[C@H]1O [Amikacin disulfate] ; what Euclidean distance value has been reported?
0.868

Suppose we examine the molecule `O=C1Nc2ccc(I)cc2/C1=C/c1cc(Br)c(O)c(Br)c1` ; what Euclidean distance value has been reported?
1.02

----------
# Tested on: OVCAR4
# Test Name: Euclidean distance of Cell Painting phenotypic profile (signed KS, 77 features) to DMSO centroid (dimensionless distance); 5 or 10 uM (library dependent); higher = stronger phenotypic change vs DMSO (phenoactivity)
# Conditions: 48 h
Reported Property: Euclidean distance
Write no unit; give the number alone.

Suppose we examine the compound CN(C)C/C=C/C(=O)Nc1cc2c(Nc3ccc(F)c(Cl)c3)ncnc2cc1O[C@H]1CCOC1 [Afatinib (BIBW2992) Dimaleate] ; what Euclidean distance value has been reported?
4.49

Suppose we examine the compound `Cc1cc(C(=O)NOCCO)c(Nc2ccc(I)cc2F)n(C)c1=O` ; what Euclidean distance value has been reported?
1.72

Suppose we examine the compound `Cc1c(CN2CCN(C(=O)[C@H](C)O)CC2)sc2c(N3CCOCC3)nc(-c3cnc(N)nc3)nc12` ; what Euclidean distance value has been reported?
3.09

Suppose we examine the compound `CCc1c(O)cc(O)c(C(=O)c2ccc(OCCN3CCOCC3)c(OC)c2)c1CC(=O)N(CCOC)CCOC` ; what Euclidean distance value has been reported?
3.18

Suppose we examine the compound `Cc1ccc(F)c(NC(=O)Nc2ccc(-c3cccc4[nH]nc(N)c34)cc2)c1` ; what Euclidean distance value has been reported?
1.29

Suppose we examine the compound `Cc1csc(-c2nnc(Nc3ccc(Oc4ncccc4-c4ccnc(N)n4)cc3)c3ccccc23)c1` ; what Euclidean distance value has been reported?
3.01

Suppose we examine the compound `CN(C)c1ccc(C(=C2C=CC(=[N+](C)C)C=C2)c2ccc(N(C)C)cc2)cc1` ; what Euclidean distance value has been reported?
2.56

----------
# Tested on: HEPG2
# Test Name: Euclidean distance of Cell Painting phenotypic profile (signed KS, 77 features) to DMSO centroid (dimensionless distance); 5 or 10 uM (library dependent); higher = stronger phenotypic change vs DMSO (phenoactivity)
# Conditions: 48 h
Where a name gives a salt, the structure may show the parent alone.
Quick rule for you: Euclidean distance at 0.9 or higher means 1, lower means -1.

Recorded results for 5 molecules are shown here.
[
  {
    "Molecule": "O=S(=O)(c1ccccc1)N(CC(F)(F)F)c1ccc(C(O)(C(F)(F)F)C(F)(F)F)cc1",
    "Group Label": 1
  },
  {
    "Molecule": "Cc1ccccc1OCC(O)CO (configuration not stated)",
    "Group Label": -1
  },
  {
    "Molecule": "CCCCCCCCOc1ccccc1C(=O)Nc1ccc(C(=O)OCC[N+](C)(CC)CC)cc1 [Otilonium Bromide]",
    "Group Label": 1
  },
  {
    "Molecule": "O=C(CCCN1CCC(O)(c2ccc(Cl)cc2)CC1)c1ccc(F)cc1",
    "Group Label": 1
  },
  {
    "Molecule": "N[C@@H](Cc1cc(I)c(Oc2ccc(O)c(I)c2)c(I)c1)C(=O)O [Liothyronine Sodium]",
    "Group Label": 1
  }
]

For this molecule, is measured Euclidean distance 0.9 or higher? `Cc1cccc(-c2[nH]ncc2-c2ccc3ncccc3n2)n1`
-1

For this molecule, is measured Euclidean distance 0.9 or higher? CN1CCN(CC(=O)N2c3ccccc3C(=O)Nc3cccnc32)CC1 [Pirenzepine dihydrochloride]
1

For this molecule, is measured Euclidean distance 0.9 or higher? CC(C)NC[C@@H](O)COc1ccc(CC(N)=O)cc1 [(R)-(+)-Atenolol HCl]
-1

For this molecule, is measured Euclidean distance 0.9 or higher? `CC1=C(C(=O)O)N2C(=O)[C@@H](NC(=O)[C@H](N)c3ccccc3)[C@H]2SC1`
1

For this molecule, is measured Euclidean distance 0.9 or higher? Cc1nnc(SCC2=C(C(=O)O)N3C(=O)[C@@H](NC(=O)Cn4cnnn4)[C@H]3SC2)s1 [Cefazolin Sodium]
1

For this molecule, is measured Euclidean distance 0.9 or higher? COc1ccc(Cl)cc1C(=O)NCCc1ccc(S(=O)(=O)NC(=O)NC2CCCCC2)cc1 [Glyburide]
1

For this molecule, is measured Euclidean distance 0.9 or higher? CC1=C(C(=O)OC(C)C)C(c2cccc([N+](=O)[O-])c2)C(C(=O)OC2CN(C(c3ccccc3)c3ccccc3)C2)=C(N)N1 (configuration not stated)
1

For this molecule, is measured Euclidean distance 0.9 or higher? `COc1cc2ncnc(Nc3cccc(Cl)c3)c2cc1OC`
1

For this molecule, is measured Euclidean distance 0.9 or higher? `O=C(O)CCNC(=O)c1ccccc1`
1

For this molecule, is measured Euclidean distance 0.9 or higher? CCCc1nn(C)c2c(=O)[nH]c(-c3cc(S(=O)(=O)N4CCN(C)CC4)ccc3OCC)nc12 [Sildenafil Mesylate]
-1

For this molecule, is measured Euclidean distance 0.9 or higher? O=C(O)c1ccc2c(c1)nc(Nc1cccc(Cl)c1)c1ccncc12 [CX-4945 (Silmitasertib)]
1
